- Target Or Test System: Avi-KRAS G12R (1-169) GppNHp/RAF1 RBD-3xFLAG (52-151) (Homo sapiens, UniProt P01116, G12R)
- Construct: Avi-KRAS G12R (1-169)
- Sequence (P01116 1-169 isoform P01116-2 G12R): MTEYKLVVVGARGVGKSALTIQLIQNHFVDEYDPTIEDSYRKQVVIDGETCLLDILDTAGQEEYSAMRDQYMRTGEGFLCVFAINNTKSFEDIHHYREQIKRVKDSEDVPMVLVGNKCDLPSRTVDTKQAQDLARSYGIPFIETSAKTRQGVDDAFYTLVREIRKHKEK
- Experimental Details: Raf1-KRAS G12R-GppNHP disruption HTRF assay (Biological Example 1)
- Assay type: binding
- Run Parameters: KRAS G12R, GppNHp-loaded; class symbols
Parameter Measured: IC50

In the examples that follow, each entry is paired with its recorded IC50.
Compound	IC50
CC(C)C(=O)N1CC[C@H](N(CCF)c2nc(OC[C@@]34CCCN3C[C@H](F)C4)nc3c(F)c(-c4ccc(F)c5sc(N)c(C#N)c45)c(C(F)(F)F)cc23)C1 (atropisomer, axis not shown)	< 100 nM
CCC(=O)N1CC[C@H]2[C@@H]1CN2c1nc(OC[C@@]23CCCN2C[C@H](F)C3)nc2c(F)c(-c3ccc(F)c4sc(N)c(C#N)c34)c(C(F)(F)F)cc12 (atropisomer, axis not shown)	1000 to 10000 nM

IC50 reported for this compound CCN(CC)C(=O)c1nn2c(c1C)CN(c1nc(OCC34CCCN3CC(F)C4)nc3c(F)c(-c4ccc(F)c5sc(N)c(C#N)c45)c(C(F)(F)F)cc13)CC2 (stereo not drawn) : 100 to 1000 nM

IC50 reported for this compound CCN(c1nc(OC[C@@]23CCCN2C[C@H](F)C3)nc2c(F)c(-c3ccc(F)c4sc(N)c(C#N)c34)c(C(F)(F)F)cc12)[C@H]1CCN(C(=O)OCC2COC2)C1 (atropisomer, axis not shown) : < 100 nM

IC50 reported for this compound CCN(c1nc(OC[C@@]23CCCN2C[C@H](F)C3)nc2c(F)c(-c3ccc(F)c4sc(N)c(C#N)c34)c(C(F)(F)F)cc12)[C@H]1CCN(C(=O)c2cnco2)C1 (atropisomer, axis not shown) : < 100 nM

IC50 reported for this compound CCN(c1nc(OC[C@@]23CCCN2C[C@H](F)C3)nc2c(F)c(-c3ccc(F)c4sc(N)c(C#N)c34)c(C(F)(F)F)cc12)[C@H]1CCN(C(=O)[C@@H]2CC23CC3)C1 (atropisomer, axis not shown) : 100 to 1000 nM

IC50 reported for this compound CCN(c1nc(OC[C@@]23CCCN2C[C@H](F)C3)nc2c(F)c(-c3ccc(F)c4sc(N)c(C#N)c34)c(C(F)(F)F)cc12)[C@@H]1C[C@H](C)N(C(=O)C2COC2)C1 (atropisomer, axis not shown) : 100 to 1000 nM

IC50 reported for this compound CCN(c1nc(OC[C@@]23CCCN2C[C@H](F)C3)nc2c(F)c(-c3ccc(F)c4sc(N)c(C#N)c34)c(C(F)(F)F)cc12)[C@H]1CCN(C(=O)[C@@H]2CCCCO2)C1 (atropisomer, axis not shown) : < 100 nM

IC50 reported for this compound CCN(c1nc(OC[C@@]23CCCN2C[C@H](F)C3)nc2c(F)c(-c3ccc(F)c4sc(N)c(C#N)c34)c(C(F)(F)F)cc12)[C@H]1C[C@@H](C)N(C(=O)[C@H]2CCO2)C1 (atropisomer, axis not shown) : < 100 nM

###

- Target Or Test System: Avi-KRAS WT (1-169) GppNHp/RAF1 RBD-3xFLAG (52-151) (Homo sapiens)
- Construct: Avi-KRAS WT (1-169)
- Sequence (P01116 1-169 isoform P01116-2): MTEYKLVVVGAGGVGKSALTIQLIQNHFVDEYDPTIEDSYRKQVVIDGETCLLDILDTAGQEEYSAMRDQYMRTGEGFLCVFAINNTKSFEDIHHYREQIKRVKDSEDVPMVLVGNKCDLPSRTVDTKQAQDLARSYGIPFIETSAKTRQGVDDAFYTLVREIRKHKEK
- Experimental Details: Raf1-KRAS WT-GppNHP disruption HTRF assay (Biological Example 1)
- Type: binding
- Run Parameters: KRAS WT, GppNHp-loaded; Table 11
Parameter Measured: IC50

In the examples that follow, each entry is paired with its recorded IC50.
Molecule	IC50
CN(c1nc(OC[C@@]23CCCN2C[C@H](F)C3)nc2c(F)c(-c3ccc(F)c4sc(N)c(C#N)c34)c(C(F)(F)F)cc12)[C@H]1C[C@@H](O)C1 (single isomer, unassigned) [Compound 20]	1 to 10 µM
C[C@H]1C[C@H](O)CCN1c1nc(OC[C@@]23CCCN2C[C@H](F)C3)nc2c(F)c(-c3ccc(F)c4sc(N)c(C#N)c34)c(C(F)(F)F)cc12 [Compound 246]	0.1 to 1 µM

Query molecule follows.
IC50 reported for this molecule CC(=O)N1CCC(N(C)c2nc(OC[C@@]34CCCN3C[C@H](F)C4)nc3c(F)c(-c4ccc(F)c5sc(N)c(C#N)c45)c(C(F)(F)F)cc23)[C@H]1C (stereo partly drawn) [Compound 114] : 0.1 to 1 µM
